Each item that follows carries a reported GI50.
System: COLO 205
experimentNotes: NCI tumour cell line growth inhibition, 48 h
Active and inactive are the calls of the source. No stated cut-off is given here; in the data, active = GI50 up to about 1.1 µM and inactive = higher.
endpoint: GI50

[[record]]
molecule = "COc1ccc(C2C(C#N)=C(S)N(C3OC(CO)C(O)C(O)C3O)C(c3ccccc3)=C2C(C)=O)cc1 (stereo not drawn)"
valuemeasured = "> 100 µM (inactive)"

[[record]]
molecule = "CC(=O)OCC1OC(n2c(C)c(/N=N/c3ccccc3)c(C)c(C#N)c2=S)C(OC(C)=O)C(OC(C)=O)C1OC(C)=O (stereo not drawn)"
valuemeasured = "86.3 µM (inactive)"

[[record]]
molecule = "NCCSSCc1ccccc1CSSCCN"
valuemeasured = "> 100 µM (inactive)"

[[record]]
molecule = "O=C(NNC(=O)c1cc(/C=C/c2cccc([N+](=O)[O-])c2)nc(S)n1)Nc1ccc(Cl)cc1"
valuemeasured = "18.4 µM (inactive)"

[[record]]
molecule = "Cc1cc2c(c(C#N)c1C)NC(=O)C(CC(=O)O)C2=O (stereo not drawn)"
valuemeasured = "> 100 µM (inactive)"

[[record]]
molecule = "CC(=O)Nc1ccc2cc(C#N)c(=O)[nH]c2n1"
valuemeasured = "> 100 µM (inactive)"

[[record]]
molecule = "CC(=O)C=C1Nc2ccccc2N1"
valuemeasured = "> 100 µM (inactive)"

[[record]]
molecule = "O=C(/C=C\\c1cccc2ccccc12)c1ccc(F)cc1"
valuemeasured = "19 µM (inactive)"


----------
Tested on: NCI-H226
experimentNotes: NCI tumour cell line growth inhibition, 48 h
Activity calls are given as the source filed them. Cut-off read from the data, not from the text of the source: active = GI50 up to about 1.1 µM and inactive = higher.
Each item that follows carries a reported GI50.
endpoint: GI50

[[record]]
molecule = "Cc1cc2c(c(S(=O)(=O)c3ccc(Cl)cc3[N+](=O)[O-])c1)NCCC2"
valuemeasured = "> 100 µM (inactive)"

[[record]]
molecule = "Cn1c(CCC2(C)Cc3ccccc3C(=O)O2)cc2ccccc2c1=O (centres undefined)"
valuemeasured = "22 µM (inactive)"

[[record]]
molecule = "COC(=O)NN1C(C)=C(C(=O)OC)C2(CCOC2=O)C1(C)O (centres undefined)"
valuemeasured = "> 100 µM (inactive)"

[[record]]
molecule = "COC1C(CN[N+](=O)CC2OC3OC(C)(C)OC3C2OC)OC2OC(C)(C)OC21 (centres undefined)"
valuemeasured = "> 100 µM (inactive)"


----------
Each item that follows carries a reported GI50.
System: IGROV-1
experimentNotes: NCI tumour cell line growth inhibition, 48 h
Active and inactive are the calls of the source. No stated cut-off is given here; in the data, active = GI50 up to about 1.1 µM and inactive = higher.
endpoint: GI50

[[record]]
molecule = "O=C(CSc1nnc(Cc2ccccc2)o1)Nc1cccc(Cl)c1"
targetdesc = "IGROV-1"
valuemeasured = "> 100 µM (inactive)"

[[record]]
molecule = "COC(=O)c1ccc(CS(=O)(=O)c2ccccc2)cc1"
targetdesc = "IGROV-1"
valuemeasured = "> 100 µM (inactive)"

[[record]]
molecule = "c1ccc(-c2sc(-c3ccccc3)c3c2C(c2ccccc2)c2c(-c4ccccc4)sc(-c4ccccc4)c2C3c2ccccc2)cc1 (stereo not drawn)"
targetdesc = "IGROV-1"
valuemeasured = "> 100 µM (inactive)"


----------
Each item that follows carries a reported GI50.
Tested on: TK-10
experimentNotes: NCI tumour cell line growth inhibition, 48 h
Activity calls are given as the source filed them. No stated cut-off is given here; in the data, active = GI50 up to about 1.1 µM and inactive = higher.
endpoint: GI50

[[record]]
compound = "COc1ccc(N2C(=O)CC(C3CC(C(C)(C)C)CCC3=O)C2=O)cc1 (centres undefined)"
targetdesc = "TK-10"
valuemeasured = "> 100 µM (inactive)"

[[record]]
compound = "O=c1c(Cl)nsnc1Cl"
targetdesc = "TK-10"
valuemeasured = "2.57 µM (inactive)"

[[record]]
compound = "Cc1cc2c(c(S(=O)(=O)c3ccc(Cl)cc3[N+](=O)[O-])c1)NCCC2"
targetdesc = "TK-10"
valuemeasured = "> 100 µM (inactive)"

[[record]]
compound = "O=C1C([N-]S(=O)(=O)c2ccccc2)=C([n+]2ccc(Cc3ccccc3)cc2)C(=O)c2ccccc21"
targetdesc = "TK-10"
valuemeasured = "1.66 µM (inactive)"

[[record]]
compound = "COc1cc(-c2cc(O)c(-c3ccc4ccccc4n3)c(O)n2)cc(OC)c1OC"
targetdesc = "TK-10"
valuemeasured = "69.7 µM (inactive)"

[[record]]
compound = "C[Si](C)(C)CN1C(=O)c2ccccc2C1(O)c1ccccc1 (centres undefined)"
targetdesc = "TK-10"
valuemeasured = "> 100 µM (inactive)"

[[record]]
compound = "O=C1CCCC(=O)N1CCc1c[nH]c2ccccc12"
targetdesc = "TK-10"
valuemeasured = "> 100 µM (inactive)"

[[record]]
compound = "COc1cccc2c1OC1Sc3ccccc3-c3nn(-c4ccccc4)c-2c31 (centres undefined)"
targetdesc = "TK-10"
valuemeasured = "> 100 µM (inactive)"

[[record]]
compound = "Cc1ccc(S(=O)(=O)NC(=O)NC(C(=O)O)C(C)O)cc1 (centres undefined)"
targetdesc = "TK-10"
valuemeasured = "> 100 µM (inactive)"


----------
System: NCI-H460
experimentNotes: NCI tumour cell line growth inhibition, 48 h
Activity calls are given as the source filed them. No stated cut-off is given here; in the data, active = GI50 up to about 1.1 µM and inactive = higher.
endpoint: GI50

[[record]]
molecule = "COc1cc(C=O)cc(/C=N/c2ccccn2)c1O"
valuemeasured = "19.5 µM (inactive)"

[[record]]
molecule = "CC(=O)C=C1Nc2ccccc2N1"
valuemeasured = "> 100 µM (inactive)"

[[record]]
molecule = "N#CSc1[nH]cnc1C(N)=O"
valuemeasured = "> 100 µM (inactive)"

[[record]]
molecule = "CN/N=C(\\C)c1c(O)cc(C)oc1=O"
valuemeasured = "> 100 µM (inactive)"

[[record]]
molecule = "Cc1ccc(-c2nc3n(c2/C=N\\N=C(N)N)CCS3)cc1"
valuemeasured = "18 µM (inactive)"

[[record]]
molecule = "O=C1CC(=O)c2c(O)cc(O)c(c2O)-c2c(ccc(O)c2O)C2=CC(=O)c3c(O)cc(O)c(c3O2)-c2c1ccc(O)c2O.O=C1CC2(O)Oc3c1c(O)cc(O)c3-c1c(ccc(O)c1O)-c1cc(=O)c3c(O)cc(O)c(c3o1)-c1c2ccc(O)c1O"
valuemeasured = "> 50 µM (inactive)"

[[record]]
molecule = "O=c1nc(NC(c2ccccc2)(c2ccccc2)c2ccccc2)ccn1CCO"
valuemeasured = "57 µM (inactive)"

[[record]]
molecule = "CC(C)(C)OC(=O)NC12C3C4C1C1C2C3C41NC(=O)OC(C)(C)C (stereo not drawn)"
valuemeasured = "35.6 µM (inactive)"

[[record]]
molecule = "COc1ccccc1/C=C1\\C(=O)N(C(=O)Cc2ccccc2)N=C1C"
valuemeasured = "> 100 µM (inactive)"

[[record]]
molecule = "CCc1c(N=[N+]=[N-])c2ccccc2oc1=O"
valuemeasured = "> 100 µM (inactive)"

[[record]]
molecule = "O=C(O)CCC(C(=O)O)N1C(=O)C2C3CCC(C3)C2C1=O (stereo not drawn)"
valuemeasured = "> 100 µM (inactive)"

[[record]]
molecule = "CC1C[C@@H]2C(=O)NC(=O)[C@@H]2c2c1c1ccccc1n2C (stereo partly drawn)"
valuemeasured = "> 100 µM (inactive)"

[[record]]
molecule = "CN(CCNC(=O)c1cn(C)c2c1ccc1ccccc12)CCNC(=O)c1cn(C)c2c1ccc1ccccc12"
valuemeasured = "1.85 µM (inactive)"


----------
Tested on: OVCAR-5
experimentNotes: NCI tumour cell line growth inhibition, 48 h
The source made the active and inactive calls. Rule as the data show it: active = GI50 up to about 1.1 µM and inactive = higher.
Classes used: active, inactive

[[record]]
compound = "CN1c2ccccc2N(C)C2C1N(C)c1ccccc1N2C (configuration not stated)"
classlabel = "inactive"

[[record]]
compound = "O=[N+]([O-])c1cccc2nc3ccccc3c(NCCNCCO)c12"
classlabel = "active"

[[record]]
compound = "CC1C2=C(CCCC2=O)N(c2ccc(Cl)cc2)C2=C1C(=O)CCC2"
classlabel = "inactive"

[[record]]
compound = "COc1ccc(/C=C(/c2ccc(OC)cc2)c2c(Cl)cc(Cl)c(/C(=C\\c3ccc(OC)cc3)c3ccc(OC)cc3)c2/N=N/c2ccccc2)cc1"
classlabel = "inactive"

[[record]]
compound = "CC1CC(c2ccccc2)Nc2nc3ccccc3n21 (configuration not stated)"
classlabel = "inactive"

[[record]]
compound = "Cc1c(C(=O)CC(=O)C(=O)Nc2ccccc2C(F)(F)F)[n+]([O-])c2ccccc2[n+]1[O-]"
classlabel = "inactive"

[[record]]
compound = "O=C(CC(C(=O)c1cccs1)c1ccsc1)c1ccc(Cl)s1 (configuration not stated)"
classlabel = "inactive"

[[record]]
compound = "Oc1ccc(CCNCc2cc3c(cc2Br)OCO3)cc1"
classlabel = "inactive"

[[record]]
compound = "COc1ccc(/C=N/Nc2nnc3c(n2)c2ccccc2c2nn(-c4ccccc4Cl)nc23)cc1"
classlabel = "inactive"

[[record]]
compound = "COC(=O)c1ccc(C)cc1CC1Cc2c(C)cccc2C1=O (configuration not stated)"
classlabel = "inactive"

[[record]]
compound = "COc1ccc(C(=O)/C=C/c2cc(O)c(O)cc2F)c(OC)c1"
classlabel = "inactive"

[[record]]
compound = "CCOC(=O)C1(C(=O)OCC)C[C@H](C)[C@](C)(O)C1"
classlabel = "inactive"

